- target under test: ETS1 (UniProt P14921)
- Sequence: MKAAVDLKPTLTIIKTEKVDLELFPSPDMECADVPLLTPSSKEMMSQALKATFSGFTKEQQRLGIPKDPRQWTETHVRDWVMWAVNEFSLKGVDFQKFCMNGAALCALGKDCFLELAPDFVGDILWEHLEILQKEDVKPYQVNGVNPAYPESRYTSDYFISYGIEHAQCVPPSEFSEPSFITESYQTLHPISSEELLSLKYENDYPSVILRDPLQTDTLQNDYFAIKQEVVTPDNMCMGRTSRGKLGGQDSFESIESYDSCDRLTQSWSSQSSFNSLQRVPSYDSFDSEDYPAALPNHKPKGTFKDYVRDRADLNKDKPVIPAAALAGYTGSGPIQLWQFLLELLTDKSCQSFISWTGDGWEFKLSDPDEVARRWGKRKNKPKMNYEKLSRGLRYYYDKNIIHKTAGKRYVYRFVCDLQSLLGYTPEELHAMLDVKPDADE
- test name: ETS1 binding intensity (PBM fluorescence) in presence of RUNX1, normalised to ETS1-only experiment (arbitrary fluorescence units); higher = stronger binding
- reported conditions: ETS1 concentration 1 nM; RUNX1 concentration 25 nM
measured endpoint: ETS1 binding intensity
A bare number is all that is needed in reply.

Ask | Can you share its ETS1 binding intensity? I mean this sequence: CCCTCTGAGACAGGATTTGCTTCCCACACAAGGCTA
Reply | 629

Ask | Entry GAGCCGGAAGTGAAGGAGGGCTTGTGGGAGATGGAG please
Reply | 3090

Ask | Entry GCTCCTGGCCCGCACTTCCGACCACACACTGGGGAC please
Reply | 592

Ask | Entry CCTGTCTGCTTCCGCCCGGCTTCGGCCCACAGTCAA please
Reply | 441

Ask | Entry CGCCGGTCCCATATCCTTTCTGCGGGGTGAGCAGCA please
Reply | 431

Ask | Entry GCTGTCCATTTCCGAGATGTTAATGCGGGATCTTGC please
Reply | 628

Ask | Entry GCGCACGCGCGTTGTTTCCGCGGTAGTCAGGGCAGT please
Reply | 364

Ask | Entry GCTCGCGTCATCCTGCAGCGCCGACACCACAGACAC please
Reply | 505

Ask | Entry ACTGCACGGCTGGGAGGATGTGGTCACACACGCCAC please
Reply | 11400

Ask | Entry GTAGAGACAGGAAATTATGTTGGTTTTCTTGCAGAA please
Reply | 3800

Ask | Entry TCGGTGAAGGACGGAAGATGATAGCCACATTTCTTC please
Reply | 485

Ask | Entry GGCTTGCCAAGAGGAAATTTGAAGCCACAATAACAT please
Reply | 951

Ask | Entry GTTGTCTTGCCCAAAGGAAGTGGTTACTAGACCAGA please
Reply | 4870

Ask | Entry GCTATCCCCGCCCCTTCCTGTGGGCTGGCGCCCGAT please
Reply | 489

Ask | Entry TGGTTAGGGAGAGGGGGATGTGGTTAGGGTGAGGGA please
Reply | 3960

Ask | Entry CGGTCAGGTCGCAGGAAACCACAGCGGCAGCGCGGC please
Reply | 1870

Ask | Entry TGGCTTCCTGTCTGTCCTTCATCAGCCCACAGAGGC please
Reply | 529

Ask | Entry TTGTCACGTCCGGCACGCCGCGAACCGCAAGGAACC please
Reply | 1800

Ask | Entry CTGCTGGGCCCCTTCCTGTCAGCGGTTGCTCTTTAC please
Reply | 716

Ask | Entry TGTCAGCTGCGTTTCCGCGGTCGCGGGTGAGTGTGC please
Reply | 588

Ask | Entry GTCACAGGAAAGAAGGAGCCTCGCCTTAACCGCACC please
Reply | 2930

Ask | Entry TGAGGCTCAGAGGAAGTGACTGGCCCGCAGGGTCAC please
Reply | 1550

Ask | Entry AGTGGATAGCACTTCCTTCTCTTACCACAGTTCCTT please
Reply | 558

Ask | Entry GTTCTCCACATCCTGTTCCGTAGCTGTGGTGCACCG please
Reply | 1780

Ask | Entry CCGGTCCGCTCGCCGGAAATGCGGGCTCTCCTGCCG please
Reply | 10400
